Each recorded value in this set is attributed to the domain aggregation screens of Martell et al. (2025).

Test: soluble fraction after stress (log2 fold change); higher = more stays soluble; pooled small domains, quantitative proteomics
Conditions: stress: 50 degC
Please use MET whenever soluble fraction (log2) is not below -0.04, and NOT MET whenever it is.

Asked: Check this sequence for soluble fraction (log2) at or above -0.04: HMGDTVSGTMLNLKPGVRVVHQIFGPGRVEETTGASLAEFRVTVRFEQKGLKTLLLQYAALQVINSEN
Given back: NOT MET

Asked: Check this sequence for soluble fraction (log2) at or above -0.04: HMRKEDYLPIGSVINMDDRKFRVDSVDFDKDKVSLQDMALADARMPIFWEEPLTVVRELYEQQDE
Given back: MET

Asked: Check this sequence for soluble fraction (log2) at or above -0.04: HMSSEPASLVGKTGVAASVLRPSGRVEVNGEYYDAVSINGFIEKGESVFVHKYENAQLYVSKNSE
Given back: MET

Asked: Check this sequence for soluble fraction (log2) at or above -0.04: HMNRPYVELFSGLGQEEAQQIVQKLQEDEVDYKFSGDSTILVKEDVVDQTKATLVQEGYPKS
Given back: MET

Asked: Check this sequence for soluble fraction (log2) at or above -0.04: HMDPEEQIQSREIWEAVERALDGMQEKGRRVVIALLEGQTQLEVSRAAGISQPLISYYLKSFRTKVRTELG
Given back: NOT MET

Asked: Check this sequence for soluble fraction (log2) at or above -0.04: HMPEDQISYTDLIKQINDGNVEKIKMTVGSTTIKVNLKEQEEPKTAIVPSTQAFIELVQEKVQDGNEITLI
Given back: MET

Asked: Check this sequence for soluble fraction (log2) at or above -0.04: HMENSMDTDWDVSGVDPSQYRLLFSTLGAIAGVKDVGLNPDGLKIIHTPEALPAIKQAFDANNLKLKMRTN
Given back: MET

Asked: Check this sequence for soluble fraction (log2) at or above -0.04: HMESEIYKKIEKSRLLELAFTKSQKGDLTGAYDLYYQAFTKYDVIADNQNRYFEDFISLIRRKQQQD
Given back: NOT MET

Asked: Check this sequence for soluble fraction (log2) at or above -0.04: HMSKAYLSVESNISGARVFVDGQKEGTTPLSDVLLSAGEHLILVKKQGYETYQKRVRFQKGRSMSLYVDLS
Given back: NOT MET

Asked: Check this sequence for soluble fraction (log2) at or above -0.04: HMDNVQLRNFAIKATEASIIYLDQEQRNFFWYNNNKKLMTVPFDENPYSAFAAYLKTDEGSEVYKAIEKKF
Given back: NOT MET

Asked: Check this sequence for soluble fraction (log2) at or above -0.04: HMEAISSESIKKMIKSYVSGEDASKPLSDQQIADLLVKEGYMISRRTVAKYRDELGILSSSKRKR
Given back: NOT MET

Asked: Check this sequence for soluble fraction (log2) at or above -0.04: HMHFEWNELRKAINDFLAEQNMNEDKQLGPYFIQRDIVVPETGTEIDSKKFSEVFKHKVIMYLFDDAAKQ
Given back: NOT MET

Asked: Check this sequence for soluble fraction (log2) at or above -0.04: HMSYDAINGYEPSDLRGSLTLEQTASMLNLPLTDVYARLGLPANYPSGATLKDGAADMGMGLSDFKHQLF
Given back: NOT MET

Asked: Check this sequence for soluble fraction (log2) at or above -0.04: HMLAGKTYEVQTESGGKWTLVASYNVKSQAIQQAQALLESHKYSGVKVIAESDRKGEEVIFNEQSEVT
Given back: NOT MET

Asked: Check this sequence for soluble fraction (log2) at or above -0.04: HMQESVTVSAQALRRLLEKGDGDAALLYLALLRHHGTIQPRALAGELRWERPRIEAAEEALRQMGLIA
Given back: MET

====

Assay: soluble fraction after stress (log2 fold change); higher = more stays soluble; pooled small domains, quantitative proteomics
Conditions: stress: 50 degC
readout.type: soluble fraction (log2)
// print number alone

Input HMSNHYETLGVPRDASQEDIKRAYRRLARKLHPDVAGPGKAEEFKAVNEAYAVLSDEESRRMYDLGGDDAL . Output soluble fraction (log2): 0.146

Input HMTTVSINTTGIITASTIRASSALYPPLYTTVQRDAGTFSAGAIIFNSTTSKLEFYDGTTWQSLPG . Output soluble fraction (log2): -0.106

Input HMGYVQLTAREKEVLQGLVDGASYKMIAAKLDIRFGTVHTHVKNIYEKLHVNSASEAVVKAIRQRL . Output soluble fraction (log2): -2.46

Input HMTTARERVYKTLQQWIVNGTLLPEERLNDVELARYFSVSRTPVREALQMLAEQKLVKMVPSSGTFVA . Output soluble fraction (log2): -0.769

Input HMESEAKLGVAFNGKTRFDMTFPADADNKTIEEAVLADERAQKYLEGFQVAKVIIVPKRMVNIVLK . Output soluble fraction (log2): 0.24

Input HMLDLPEISARIMEVFETKDRATISELSKLTGTNINTIKKHLSSLVENNYLIKHGKTRGAWYTKST . Output soluble fraction (log2): -0.104

Input HMYPMQNYSTIIGVIELRQQSVGYATTQKRYGIGSSTVTLIMKRFKELGLTLEELRAMPPKAVEVAFYPPE . Output soluble fraction (log2): -1.11

Input HMLAEEAFNKQAATAGYVYRDGSYHPAASVAQYDAMPRNYRTNTMAQELSRSQVESQLQQSQ . Output soluble fraction (log2): 0.436

Input HMSQLSDEQELRDIARGIIEGNPNEAEKYRAGRTGLLGFFVGKLMAETEGKANPRLASRILKELLE . Output soluble fraction (log2): -0.0477

Input HMAPELSGEKLWDAQDVAMFLRVKPTTVWSYVSRDGFPAPVSQAGRAGMWSEPLVVQWYLSRPG . Output soluble fraction (log2): -0.223

Input HMLNDMYAVMEIRGQGGELIAKLINQDGSPFYVKKGTTLQSGHVIDEITTTYVRAEKAGAKDYLYF . Output soluble fraction (log2): -0.0846

Input HMNLDMVINKIGIVTEDIKQDKIGEVKVLGKRWSAYSNTELKKDEKVKILSIDGVKLKVEKI . Output soluble fraction (log2): 0.191

Input HMGKPTPASQVATRWLAGDLPETLPVAGPAPSFETLARSVSTDFHPRAVLQELLRLGVAEEADGRVRLLK . Output soluble fraction (log2): 0.00959

Input HMYDPVNEIGRVLKKIRQERSLTLDNVAEITGVSKTMLGQIERGVSVPTISVLWKIAKGLQVSLSTLLNE . Output soluble fraction (log2): -0.826

Input HMSLPKVLVPTDITVSQLAKYLEVDAIAIVKKLFGLGVVASLNQRLENEQMQLLGQEFGKDIIFTEN . Output soluble fraction (log2): -0.438

Input HMGVRPAALGFQKVRIEPQVGTFREASGDVITPRGLIHAEWKRDEENALHLHYTLPDGVAYA . Output soluble fraction (log2): -0.0327

====

Assay: soluble fraction after stress (log2 fold change); higher = more stays soluble; pooled small domains, quantitative proteomics
Conditions: stress: 50 degC
Classification scheme (soluble fraction (log2)): b0 (below -0.3), b1 (-0.3 to below 0.004), b2 (0.004 or more)

Asked: Lab note: sort HMTYFDIAPELLTVYKEINDIPRDINQIVRKTGLSINEVSYKTMILQLEDKIVELPGQRFIRNS into the matching soluble fraction (log2) band.
Given back: b0

Asked: Lab note: sort HMAIDYYQTLINLGYKLQDRGDYWQTSAIHRGGDNPTALQIYKNTGVWKDYVSGGGFKPFKALVEKSD into the matching soluble fraction (log2) band.
Given back: b0

Asked: Lab note: sort HMENTGFKDKKGNYIFDGDIVKDILGNIMKVEFKHFKWQLIPLNKTAFNMPMVDWLDLETETLNAEIIGN into the matching soluble fraction (log2) band.
Given back: b0

Asked: Lab note: sort HMEPVTETVYAMDTVNIRAAADQTSEKIGSVTVGTALTRTGTDGDWSIIDYNGTTGYVKSEFLSNTAPEV into the matching soluble fraction (log2) band.
Given back: b1

Asked: Lab note: sort HMPVVKIPFILTEGPSSITKVIEIDADEILELKDVFQEDDKLWSINQIEMNDGRYVKHSDASLIVRASALR into the matching soluble fraction (log2) band.
Given back: b2

Asked: Lab note: sort HMSHSDMEEWTDAVRSRRKKLGLTQVQIARRLGVTSHHFSQIESGRTIPSASLQIEIDRLLKNWND into the matching soluble fraction (log2) band.
Given back: b0

Asked: Lab note: sort HMTGELEVTAAGLSPEKLLNLAAKNHITLSNVKRLSYTQLSFRIGPADYNRLKKLLPEGRYKLNVGSS into the matching soluble fraction (log2) band.
Given back: b1

Asked: Lab note: sort HMARAVSPLEAIPGVGPRRRQQLLKQLGGMQEVARAGVEDLSRVPGISRALAQQIYDAFHGD into the matching soluble fraction (log2) band.
Given back: b1

Asked: Lab note: sort HMEIYEEDRTKVVNDLMDQILNRQITMDAAATKFINIRNSLGTTITKEDEQNLEMLRGLIFDKT into the matching soluble fraction (log2) band.
Given back: b2

Asked: Lab note: sort HMVNKQERTYTILRDRIHSGSFAPLERLNIDALARELGVSPIPVREALRRLEAEGWVRFTPNVGAVVSP into the matching soluble fraction (log2) band.
Given back: b1

Asked: Lab note: sort HMSGMEKLAIQEIEKEIKSFVKGDILIELTGKNRATAYVSEKNVGALIGKKGERINSIEKRLGVGIDVRPY into the matching soluble fraction (log2) band.
Given back: b2

Asked: Lab note: sort HMNGGPHYLRDVRTSLGLSQADLAKAVGTSANMIHYLESGERALTLKWIRRISEALNVSPMRLIN into the matching soluble fraction (log2) band.
Given back: b0

Asked: Lab note: sort HMQNSMTTTPDVVGKTGTFAEQMLKAANLNVQFAGDSSGKVVAQDVEAGTSAAYGTIITLTMDS into the matching soluble fraction (log2) band.
Given back: b2

Asked: Lab note: sort HMQDNDLKNQIENVLRTYPDNVFTVEKIADVLRSHGSAAFKLIVQELASLERDKVAVVTEDGKFQLNPD into the matching soluble fraction (log2) band.
Given back: b2

Asked: Lab note: sort HMSTMTDAQRHLFANKLSQLPEMGKYSHGTESYQQFAVRIAEMLQTPKKFKELYPYLQKVGFKA into the matching soluble fraction (log2) band.
Given back: b1

Asked: Lab note: sort HMVLTSFHDNFPKTGTTYTVRSGDTISGIATKFGSTRDWIQNANEISHPKYLQVGRTLFIPH into the matching soluble fraction (log2) band.
Given back: b1

Asked: Lab note: sort HMNKPKIIINSVDDSVFSDYVKDSLSIAEVARSIGIDNNKINTSVYREIHKRIDSLKLDTSHFTGGAWN into the matching soluble fraction (log2) band.
Given back: b1

Asked: Lab note: sort HMQDENAVTYLLEIKNADANDIASVLKTLKSPDADVVVYKTLNMIIFTGQGSEINGLVKVARQLDRK into the matching soluble fraction (log2) band.
Given back: b0

Asked: Lab note: sort HMEIVSTEEKIKRAAEQVFLLRGLEGARMQEIADVAGINKAMLHYYFRNKETLFDVILSEKL into the matching soluble fraction (log2) band.
Given back: b0

Asked: Lab note: sort HMPMPQDEVSYALGLSIGQNFKASGIKAITSEDFIAGLQDALAEREPQMTTERAREVINQLFMRLQQEESE into the matching soluble fraction (log2) band.
Given back: b2

Asked: Lab note: sort HMQKKYLAVKEYLLEQINSGAYQPDEPIPPEREMAAMLGVNRMTLRRAVEELMYEGLLIRKKGSGTFLTK into the matching soluble fraction (log2) band.
Given back: b0

Asked: Lab note: sort HMVPHQPRVWTNTAGKTITAAFVRFNAAGRKVSLKLEKGRQVELPLASLSGNDVDWIKEHVPEAMSNQE into the matching soluble fraction (log2) band.
Given back: b1

Asked: Lab note: sort HMESAQLIINVAGKVSNPGVYQLPQGSRVVDAIEAAGKQLKGVDISDINLARVLVDGEQILVGGV into the matching soluble fraction (log2) band.
Given back: b2

Asked: Lab note: sort HMKDASEFLGAKGKTITPLRPTGAAVINGEKVDVLAEGEFIPKNAEIVVIKVEGSKIIVRNANN into the matching soluble fraction (log2) band.
Given back: b2

Asked: Lab note: sort HMKPGYVIQVNGTVTKIQSGLVYVKTPAAQYTLMRKYAPADAAVGDRVSLWINEEGMVIDVHGK into the matching soluble fraction (log2) band.
Given back: b1

Asked: Lab note: sort HMAKQQTTTTAHVVTTGETLYSIAQKNGISVEELKKSNNITSDKLRPGQTLHITKVSKTSSTAK into the matching soluble fraction (log2) band.
Given back: b2

Asked: Lab note: sort HMTLTPEQQAARRSEIVDIALRLIAENGFQKTSMREIADLAKMGKSSLYDFFKTKDEIAVYAMEKK into the matching soluble fraction (log2) band.
Given back: b1
